Here we list compounds with their recorded pIC50 when tested on Beta-secretase 1 (Homo sapiens, UniProt P56817).
Sequence (P56817 whole entry): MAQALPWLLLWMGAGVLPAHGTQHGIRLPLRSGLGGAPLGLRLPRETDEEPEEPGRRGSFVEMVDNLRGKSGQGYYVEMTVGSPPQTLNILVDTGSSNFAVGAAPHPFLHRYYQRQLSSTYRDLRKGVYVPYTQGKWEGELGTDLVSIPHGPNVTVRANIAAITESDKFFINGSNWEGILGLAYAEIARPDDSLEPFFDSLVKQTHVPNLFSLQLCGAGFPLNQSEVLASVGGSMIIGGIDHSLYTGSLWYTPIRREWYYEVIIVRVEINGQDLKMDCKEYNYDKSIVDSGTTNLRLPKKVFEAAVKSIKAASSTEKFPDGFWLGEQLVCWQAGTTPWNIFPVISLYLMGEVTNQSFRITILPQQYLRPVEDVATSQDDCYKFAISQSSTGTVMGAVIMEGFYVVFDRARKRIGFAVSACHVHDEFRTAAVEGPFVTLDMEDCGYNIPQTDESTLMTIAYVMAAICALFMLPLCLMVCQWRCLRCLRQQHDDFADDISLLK
Recall that pIC50 is obtained by taking minus log10 of the concentration measured in molar.

Example cases with answers are listed next.
structure.smiles: COc1ccc(COC[C@@H](C[C@H](O)[C@H](COc2cc(F)cc(F)c2)NC(=O)c2cc(N(C)C[C@H]3C[C@@H]3C)nc(N(C)S(C)(=O)=O)c2)OC)cc1
reported.endpoint: pIC50
reported: 5.74
//
structure.smiles: C=CCOC[C@@H](C[C@H](O)[C@H](COc1cc(F)cc(F)c1)NC(=O)c1cc(C(=O)N[C@H](C)c2ccccc2)cc(N(C)S(C)(=O)=O)c1)OC
reported.endpoint: pIC50
reported: 5.69

QUERY: For Beta-secretase 1 (Homo sapiens, UniProt P56817), give pIC50 of the listed compound: `CO[C@@H](COC(C)C)C[C@H](O)[C@H](COc1cc(F)cc(F)c1)NC(=O)c1cc(C(=O)N[C@H](C)c2ccccc2)cc(N(C)S(C)(=O)=O)c1`
RESULT: 6.32
